Test system: AT3q130 animals (mutant ATXN3)
Assay: C. elegans assay for motility defects in AT3q130 animals
Type: in vivo
Conditions: Caenorhabditis elegans, dose-response profile, read-out: half-maximal effective concentration (EC50), locomotion defects
MEASURED METRIC: EC50 (µM)
Entry rule: numbers only, all in µM.

Query block: Sample CN(C)CCCC1(c2ccc(F)cc2)OCc2cc(C#N)ccc21 (stereo not shown) — what was its EC50?
Result block: 45
